# credit: paper PMC11823646

test: Population pharmacokinetics of caspofungin in critically ill patients receiving ECMO; assay type: in vivo, human; details: human, plasma; 8 critically ill patients on ECMO; maintenance dose 50 or 70 mg daily IV; median; read-out: median AUC0–24 exposure
attribute.measured: AUC(0-t) (µg·h/mL)
Numeric answer only, unit µg·h/mL assumed.

-- ask Which AUC(0-t) is listed for CC[C@H](C)C[C@H](C)CCCCCCCCC(=O)N[C@H]1C[C@@H](O)[C@@H](NCCN)NC(=O)[C@@H]2[C@@H](O)CCN2C(=O)[C@H]([C@H](O)CCN)NC(=O)[C@H]([C@H](O)[C@@H](O)c2ccc(O)cc2)NC(=O)[C@@H]2C[C@@H](O)CN2C(=O)[C@H]([C@@H](C)O)NC1=O ?
-- reply 115
